Reported growth inhibition is given for each of the following molecules.
- test: NCI Yeast Anticancer Drug Screen. Data for the sgs1 mgt1 strain (AID 161);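 note: 0% = growth of cultures given vehicle only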
- setup conditions: S. cerevisiae sgs1 mgt1 strain, at 50.0 µM (retest, dose inferred, filed as 5.0), active compounds read high
The panel holds about 79,000 compounds, 15% with a hit somewhere; the sample as a whole holds those more often. *1 amine or outer side, *2 acyl side, *3 side chain or, on linkers, in order; H or OH if unused. Where a SMILES comes first, the peptide text is derived from it. [ ]: non-standard residue; d: D form. The star is where a group is joined. X5 = CCC(=O)CC1CC(C)CC(C(=O)[*:2])N1[*:1]; X4 = CCCCCCCCC(C)C(=O)*; Aib = CC(C)(N)C(=O)O; X6 = CC(CN(C)CCO)N*
Write it as a number; the unit % goes unstated.

• C/C(=N\NC(=S)N(C)C)c1ccccn1 = 99
• O=[N+]([O-])c1ccc2nc3ccccc3[n+]([O-])c2c1 = 100
• CCCC(=O)c1ccc([N+](=O)[O-])o1 = 99

Value lookup for growth inhibition; key = `CC(C)(C)c1ccc(O)c(Br)c1`
2

Value lookup for growth inhibition; key = CCCCCCCCC(C)C(=O)N1CCCC1C(=O)N1C(CC(=O)CC)CC(C)CC1C(=O)NC(C)C(=O)NC(C)(C)C(=O)NC(C)(C)C(=O)NC(C(=O)NC(C)C(=O)NC(C)(C)C(=O)NC(C)(C)C(=O)NC(C)CN(C)CCO)C(C)CC (stereo unspecified) (X4-P[X5]A[Aib][Aib]IA[Aib][Aib]-X6; configuration not given here)
100

Value lookup for growth inhibition; key = `O/N=C1\c2ccccc2-c2ccc(F)cc21`
87
